B1: Chromodomain-helicase-DNA-binding protein 4, residues 444 to 496; numbered along this chain, Q14839 (parent)
chain: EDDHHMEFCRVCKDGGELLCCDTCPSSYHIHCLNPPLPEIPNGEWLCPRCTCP

- Variants of: B1
- Measurement notes: abundance fitness (aPCA) (normalised: wild type 0, dead -1); higher = more abundant; growth selection in yeast, the domain comes from the species named
- Assay setup: Homo sapiens
Can you tell me abundance fitness for the items I'm about to list?

// solved cases for abundance fitness follow
>  <Mutation name>
R49E

>  <Measured result>
-0.108

$$$$
>  <Mutation name>
S27D

>  <Measured result>
-0.705

$$$$
>  <Mutation name>
C50F

>  <Measured result>
-0.895

$$$$
>  <Mutation name>
H31W

>  <Measured result>
-0.285

$$$$
>  <Mutation name>
Y28F

>  <Measured result>
0.015

$$$$
>  <Mutation name>
C24Y

>  <Measured result>
-0.696

$$$$

// for each variant below, give its abundance fitness
1. W45C
2. P53S
3. K13H
4. L37R
5. H31G
6. P41D

Result:
1. -0.616
2. -0.455
3. -0.286
4. -0.233
5. 0.002
6. -0.282

Take each entry in turn and give its abundance fitness.
1. E17H
2. G15S
3. L19F
4. E17N
5. I30L
6. G43S

Result:
1. -0.906
2. -0.061
3. -0.262
4. -0.077
5. -0.023
6. -0.061

Hi, could you look up abundance fitness for each item in my list?
1. E17P
2. P36N
3. E39S
4. P48D
5. F8G
6. P36E
7. C12V

Result:
1: -0.657; 2: -0.294; 3: 0.021; 4: -0.102; 5: 0.086; 6: -0.33; 7: -0.7
